From: patent US20120040966A1

Give EC50 for every item shown.
System: Influenza virus strain A/CA/04/2009 (H1N1)
PROCEDURE DETAILS: organism not typed
Format: cell-based
ASSAY CONTEXT: MDCK, 72 h, read-out: H1N1 EC50 (@ 50% Via)
One number for each entry, in nM.

Example entries and their recorded answers appear below.
COc1ccc(C2NC(=O)NC3=C2CN(C(=O)CNC2CC2)c2ccccc23)cc1Br (centres unmarked) [compound 24718]; 8000
COc1ccc(C2NC(=O)NC3=C2CN(C(=O)COC(C)=O)c2ccccc23)cc1Br (centres unmarked) [compound 23206]; 25.7
COc1ccc(C2NC(=O)NC3=C2CN(C(=O)CN(C)C)c2ccccc23)cc1Br (centres unmarked) [compound 25012]; 3000
COc1ccc(C2NC(=O)NC3=C2CCc2c(OC)cccc23)cc1Br (centres unmarked) [compound 22722]; 1100
Cc1cc(C2NC(=O)NC3=C2CCc2ccccc23)ccc1O (centres unmarked) [compound 22706]; 4800

Parameters: items (list). Returns: EC50 for each item.
1. COc1ccc2c(c1)C1=C(CC2)C(c2ccc(C)cc2)NC(=O)N1 (centres unmarked) [compound 22087]
2. COc1ccc(C2NC(=O)NC3=C2CC(C)c2ccccc23)cc1Br (centres unmarked) [compound 22700]

47000
98.5

====

Test system: Influenza virus strain A/CA/04/2009 (H1N1)
PROCEDURE DETAILS: organism not typed
Format: cell-based
ASSAY CONTEXT: MDCK, 72 h, read-out: H1N1 EC50 (@ 50% Via)
Binarize EC50 at 4 µM; below is met, at or above is not met.

Solved cases below.
COc1ccc(C2NC(=O)NC3=C2CN(C(=O)CSCCN(C)C)c2ccccc23)cc1Br (stereo not drawn); not met
O=C1NC2=C(COc3ccccc32)C(c2ccc(F)c(Br)c2)N1 (stereo not drawn); not met
Cc1cccc(C2NC(=O)NC3=C2COc2ccccc23)c1 (stereo not drawn); not met
COc1cc(C2NC(=O)NC3=C2CCc2ccccc23)ccc1F (stereo not drawn); not met
COc1ccc(C2NC(=O)NC3=C2CN(C(C)=O)c2ccccc23)cc1Br (stereo not drawn); met
O=C1NC2=C(C(c3ccc4c(c3)OCO4)N1)C(c1ccccc1)Oc1ccccc12 (stereo not drawn); not met

Does the reported EC50 of COc1ccc(C2NC(=O)NC3=C2CCc2ccccc23)cc1F (stereo not drawn) stay below 4 µM?
met

Just wondering, is EC50 of O=C1NC2=C(CCc3ccccc32)C(c2ccc(C(F)(F)F)cc2)N1 (stereo not drawn) below 4 µM?
not met

====

Test system: influenza strain A/VN/1203/2004 (H5N1)
PROCEDURE DETAILS: microbe, parasite or virus in culture
Format: cell-based, Influenza A virus (H5N1)
ASSAY CONTEXT: read-out: H5N1 EC50 (Inf Pt)
Define the label as 1.0 when EC50 is strictly less than 1000 nM and as 0.0 in all remaining cases.

Some entries whose results are on file:
COc1ccc(-c2nc(=O)[nH]c3c2CCc2ccccc2-3)cc1; 0.0
Cc1cccc(C2NC(=O)NC3=C2CCc2ccccc23)c1 (centres unmarked); 1.0
O=C1NC2=C(CCc3ccccc32)C(c2ccc3c(c2)OCO3)N1 (centres unmarked); 1.0
COc1cccc2c1CCC1=C2NC(=O)NC1c1ccc(C)c(C)c1 (centres unmarked); 0.0

Please find the next compound below.
Report whether reported EC50 is lower than 1000 nM (strictly) for O=C1NC2=C(CCCc3ccccc32)C(c2ccc3c(c2)OCO3)N1 (centres unmarked)
0.0

====

Kindly state EC50 for each of the entries shown.
Tested on: Influenza virus strain A/CA/04/2009 (H1N1)
PROCEDURE DETAILS: organism not typed
Format: cell-based
ASSAY CONTEXT: MDCK, 72 h, read-out: H1N1 EC50 (@ 50% Via)

In the examples that follow, each entry is paired with its recorded EC50.
CCOc1c(Br)cc(C2NC(=O)NC3=C2CCc2ccccc23)cc1Br (centres unmarked); > 40 µM
COc1ccc(C2NC(=O)NC3=C2CN(C(=O)c2ccco2)c2ccccc23)cc1Br (centres unmarked); > 40 µM
COc1ccc(C2NC(=O)NC3=C2CN(C(=O)CNC(=O)CO)c2ccccc23)cc1Br (centres unmarked); > 40 µM
COc1ccc(C2NC(O)NC3=C2CN(C(=O)CO)c2ccccc23)cc1Br (centres unmarked); < 0.067 µM
O=C1NC2=C(COc3ccccc32)C(c2ccc(Cl)c(Cl)c2)N1 (centres unmarked); > 50 µM

Field: EC50. Fill in for each record below.
1. COc1ccc(C2NC(=O)NC3=C2CCc2c(C)cc(C)cc23)cc1Br (centres unmarked)
2. O=C1NC2=C(CCc3ccccc32)C(c2ccc3c(c2)OCO3)N1 (centres unmarked)
3. O=C1NC2=C(CCc3ccccc32)C(c2cccc([N+](=O)[O-])c2)N1 (centres unmarked)

1. > 50 µM
2. > 50 µM
3. > 50 µM
